Observed Ki for AKT-3 (Homo sapiens, UniProt Q9Y243), reported per entry below.

Sample records with Ki:
NCCC(C(=O)Nc1ccc2[nH]nc(-c3cccc(F)c3)c2c1)c1ccc(Cl)c(Cl)c1 (centres unmarked)
< 1000 nM
NC(C(=O)Nc1ccc2[nH]ncc2c1)c1cccc(Br)c1 (centres unmarked)
10000 to 20000 nM
NCCC(C(=O)Nc1ccc2[nH]ncc2c1)c1cccc(O)c1 (centres unmarked)
< 1000 nM

According to the records, this compound NCCNC(C(=O)Nc1ccc2[nH]ncc2c1)c1ccc2ccccc2c1 (centres unmarked) displays Ki of < 1000 nM

----------
What follows is a record of pKi for AKT-3 (Homo sapiens).
pKi: −log10 of the molar value.

Use the examples below as a reference point.
NCCC(C(=O)Nc1ccc2[nH]nc(-c3cccc(Cl)c3)c2c1)c1ccc(Cl)c(Cl)c1 (centres unmarked) [Compound I-253]
> 6.00
NCCC(C(=O)Nc1ccc2[nH]nc(C(=O)Nc3ccccc3)c2c1)c1ccccc1 (centres unmarked) [Compound I-1040]
4.70 to 5.00
NCCC(C(=O)Nc1ccc2[nH]nc(Nc3cccc(F)c3)c2c1)c1ccc(Cl)c(Cl)c1 (centres unmarked) [Compound I-213]
> 6.00
CCCc1ccc(C(=O)Nc2n[nH]c3ccc(NC(=O)C(CCN)c4ccc(Cl)c(Cl)c4)cc23)cc1 (centres unmarked) [Compound I-188]
> 6.00
Cc1n[nH]c2ccc(NC(=O)C(CCN)c3ccc(Cl)c(Cl)c3O)cc12 (centres unmarked) [Compound I-133]
> 6.00

Looking up NCC[C@@H](C(=O)Nc1ccc2[nH]nc(-c3ccccc3)c2c1)c1ccccc1 [Compound I-1052] , I see its pKi listed as 5.00 to 6.00

So for NCC[C@@H](C(=O)Nc1ccc2[nH]nc(NC(=O)c3cccs3)c2c1)c1c(F)ccc(Cl)c1F [Compound I-1045] , the logged pKi turned out to be > 6.00

For this compound ( NCCC(C(=O)Nc1ccc2[nH]nc(-c3ccc(-c4ccccc4)cc3)c2c1)c1ccccc1 (centres unmarked) [Compound I-236] ), measured pKi is 5.00 to 6.00

Every entry's value here was drawn from patent US7041687B2.
